Data origin: PubChem BioAssay AID2060506

# System: 598228-144-R-J1-PDC complex spheroid viability;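 further: spheroids exposed to the agents for one week before reading; percent of vehicle DMSO control viability so 100% = untreated growth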
# experimental.details: Anticancer human tumor 598228-144-R-J1-PDC patient-derived serous endometrial adenocarcinoma cell line growth inhibition [GQUAD]
# test.conditions: second compound 10 µM; first compound 10 µM; active compounds read low
# note: boundary value 20% maps to 0.0; viability, T/C below it maps to 1.0

Sample answers from the record:
{"columns": ["compound", "class"],
 "data": [
  ["Nc1ccn(C2OC(CO)C(O)C2(F)F)c(=O)n1 (stereo not given) + Cc1cnc(CNC(=O)c2c(=O)c3ccc(N4CCCN(C)CC4)nc3n3c2sc2ccccc23)cn1", 1.0],
  ["COc1ncnc(C2CC2)c1-c1ncc2cnn(Cc3ccc(-c4nc(C(F)(F)F)cn4C(C)C)cc3)c2n1 + CN(C)c1ccc(Nc2c3ccc(NC(=O)CCN4CCCC4)cc3nc3cc(NC(=O)CCN4CCCC4)ccc23)cc1", 0.0],
  ["O=C(NO)c1cnc(N2CCN(S(=O)(=O)c3ccc4ccccc4c3)CC2)nc1 + Cc1[nH]c2ccc(F)cc2c1-c1nc2c3cccnc3c3ncccc3c2[nH]1", 1.0],
  ["Cc1cccc(N(C)C(=O)C2C(O)CCN2c2nc(C)cc(C(F)(F)F)c2C#N)c1 (stereo not given) + CN(C)c1ccc(Nc2c3ccc(NC(=O)CCN4CCCC4)cc3nc3cc(NC(=O)CCN4CCCC4)ccc23)cc1", 0.0]
]}

Now let's try a different one.
Input: Answer whether the compound COc1ncnc(C2CC2)c1-c1ncc2cnn(Cc3ccc(-c4nc(C(F)(F)F)cn4C(C)C)cc3)c2n1 + Cc1cnc(CNC(=O)c2c(=O)c3ccc(N4CCCN(C)CC4)nc3n3c2sc2ccccc23)cn1 has viability, T/C strictly less than 20%
Output: 0.0
